rRNA adenine N-6-methyltransferase (Streptococcus pneumoniae, UniProt P21236): recorded pKi for assorted molecules
Sequence (P21236 whole entry): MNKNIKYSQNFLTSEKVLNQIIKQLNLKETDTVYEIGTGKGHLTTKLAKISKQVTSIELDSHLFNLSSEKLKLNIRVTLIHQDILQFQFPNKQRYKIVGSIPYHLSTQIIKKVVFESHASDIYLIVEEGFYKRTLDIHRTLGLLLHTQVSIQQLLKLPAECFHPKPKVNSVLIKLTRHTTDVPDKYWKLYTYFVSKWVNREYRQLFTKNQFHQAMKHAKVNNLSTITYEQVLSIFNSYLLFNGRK
One number for each entry, as −log10 of the molar value.

The following molecules have reported results that may help.
Molecule	pKi
Nc1nc(NC2Cc3ccccc3C2)nc(C2CCCCC2)n1	4.60
Nc1nc(NC2Cc3ccccc3C2)cc(-c2ccc(NCCCc3ccccc3O)cc2)n1	5.12
CSc1nc(N)nc(NC2Cc3ccccc3C2)n1	5.00
Nc1nc(NC2CCc3ccccc32)nc(N2CCCCC2)n1 (stereo unspecified)	4.12

For the next question, use this molecule.
## Task Consider the molecule Nc1nc(NC2Cc3ccccc3C2)nc(N2CCCCC2)n1 and give its recorded pKi.
## Result 5.10

* * *

Observed pKi values for rRNA adenine N-6-methyltransferase (Streptococcus pneumoniae, UniProt P21236) are listed in what follows.
Numbers only, as −log10 of the molar value.

Molecule	pKi
Nc1nc(NC2Cc3ccccc3C2)nc(N2CCC(C(=O)NCCc3c[nH]c4ccccc34)CC2)n1	5.70
Nc1nc(NCCCc2c(O)cc(Cl)cc2Cl)nc(NC2Cc3ccccc3C2)n1	5.00
Nc1ncnc2c1ncn2[C@@H]1O[C@H](CSCC[C@H](N)C(=O)O)[C@@H](O)[C@H]1O	4.40
Nc1nc(NC2Cc3ccccc3C2)nc(N2CCCC(CO)C2)n1 (stereo not given)	4.90

Let's switch to this molecule now.
## Task Answer with reported pKi of Nc1ccc(-c2nc(N)nc(NC3Cc4ccccc4C3)n2)cc1
## Result 4.46

* * *

Assay: The binding affinity towards N-labeled Erythromycin-resistant ErmAM methylase evaluated by NMR
Reported endpoint: pKd
Give bare numbers, as −log10 of the molar value.

Structure smiles	Meas value
c1cnc2[nH]ccc2c1	2.89

## Task Supply reported pKd belonging to this molecule: CSc1nc(N)nc(N)n1
## Result 3.00

* * *

Kindly state pKi for each of the entries shown.
Biological target: rRNA adenine N-6-methyltransferase (Bacillus subtilis)
Sequence (P13956 whole entry): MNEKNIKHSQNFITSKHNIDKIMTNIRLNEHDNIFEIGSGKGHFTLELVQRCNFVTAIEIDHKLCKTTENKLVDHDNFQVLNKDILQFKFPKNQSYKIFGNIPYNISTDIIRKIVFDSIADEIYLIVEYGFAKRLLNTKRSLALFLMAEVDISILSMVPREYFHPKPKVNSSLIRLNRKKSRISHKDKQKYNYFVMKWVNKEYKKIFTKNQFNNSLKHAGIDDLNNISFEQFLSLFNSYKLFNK
Test: Inhibitory activity against ErmC methylase
pKi: −log10 of the molar value.

Quick one: give me pKi for each item below, same order please.
1. Nc1ccc(-c2cc(NC3Cc4ccccc4C3)nc(N)n2)cc1
2. Nc1ccc(-c2nc(N)nc(NC3Cc4ccccc4C3)n2)cc1
3. Nc1nc(NCCCc2c(O)cc(Cl)cc2Cl)nc(NC2Cc3ccccc3C2)n1
4. Nc1nc(NC2CCCCC2)nc(N2CCCCC2)n1
5. Nc1nc(NC2Cc3ccccc3C2)nc(C2CCCCC2)n1
6. CN(c1nc(N)nc(N2CCCCC2)n1)C1CCCCC1
7. CSc1nc(N)nc(NC2Cc3ccccc3C2)n1
8. Oc1nc(NC2Cc3ccccc3C2)nc(N2CCCCC2)n1

## Result
1: < 4.00; 2: < 4.30; 3: < 4.00; 4: < 4.00; 5: < 4.00; 6: < 4.00; 7: < 4.00; 8: < 4.00

## Task Provide pKi value for the following compound: Nc1nc(NC2Cc3ccccc3C2)nc(N2CCCC(CO)C2)n1 (centres undefined)
## Result < 4.00
